The reader will find reported dTm values listed item by item below.
target: ~100 representative kinases (Homo sapiens); construct: Recombinant protein kinase domains with a concentration of 2 μM; experiment: DSF 100 kinase selectivity screen; assay type: binding; details: Protein EPHA5; average of three replicates;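 note: compound tested at 20 µM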
Metric: dTm (K)

Cc1ccc(-n2nc(C(C)(C)C)cc2NC(=O)Nc2cccc(-c3c[nH]c4ncnc(N5CCOCC5)c34)c2)cc1 | 6.71
O=C(Nc1cccc(-c2c[nH]c3ncnc(N4CCOCC4)c23)c1)C1(C(=O)Nc2cc(Br)c(F)cc2F)CC1 | 1.57
CCSc1nc(NC)c2c(-c3cccc(NC(=O)Nc4cc(C(C)(C)C)nn4-c4ccc(C)cc4)c3)c[nH]c2n1 | 0.04
CCNc1nc(Nc2cc(F)c(C(=O)N3CCOCC3)cc2OC)ncc1C(F)(F)F | -0.45
O=C(Nc1cccc(-c2c[nH]c3ncnc(N4CCOCC4)c23)c1)C1(C(=O)Nc2ccc(F)cc2F)CC1 | 1.86
COc1cc(S(C)(=O)=O)ccc1Nc1nc(N(C)C)c2c(Cl)c[nH]c2n1 | -0.48
O=C(Nc1ccc(Cl)cc1)C1(C(=O)Nc2cccc(-c3c[nH]c4ncnc(N5CCOCC5)c34)c2)CC1 | 4.99
Cc1ccc(C(=O)Nc2ccc(CN3CCN(C)CC3)c(C(F)(F)F)c2)cc1C#Cc1c[nH]c2ncnc(N3CCOCC3)c12 | 5.80

* * *

target: ~100 representative kinases (Homo sapiens, UniProt P22830); construct: Recombinant protein kinase domains with a concentration of 2 μM; assay: DSF 100 kinase selectivity screen; format: binding; settings: protein FECH; average of three replicates;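 note: compound tested at 20 µM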
Sequence (P22830 55-423): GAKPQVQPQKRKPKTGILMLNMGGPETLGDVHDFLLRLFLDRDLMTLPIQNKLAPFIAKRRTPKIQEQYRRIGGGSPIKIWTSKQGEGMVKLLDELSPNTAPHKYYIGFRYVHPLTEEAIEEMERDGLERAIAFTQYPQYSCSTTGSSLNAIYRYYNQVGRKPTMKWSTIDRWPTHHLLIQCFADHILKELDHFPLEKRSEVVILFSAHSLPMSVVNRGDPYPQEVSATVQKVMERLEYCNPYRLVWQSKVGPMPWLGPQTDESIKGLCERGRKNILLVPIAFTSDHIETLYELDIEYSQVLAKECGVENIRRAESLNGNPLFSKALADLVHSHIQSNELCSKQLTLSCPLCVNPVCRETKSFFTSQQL
Metric: dTm (K)

O=C(Nc1cccc(-c2c[nH]c3ncnc(N4CCOCC4)c23)c1)C1(C(=O)Nc2ccc(F)cc2F)CC1 [Compound 23] | 0.12
CC(C)(C)c1cc(NC(=O)Nc2cccc(-c3c[nH]c4ncnc(N5CCOCC5)c34)c2)n(-c2ccc3ncccc3c2)n1 [Compound 28] | 1.86
COc1cc(NC(=O)C2(C(=O)Nc3cccc(-c4c[nH]c5ncnc(N6CCOCC6)c45)c3)CC2)ccc1F [Compound 21] | -0.18
CCc1ccc(NC(=O)C2(C(=O)Nc3cccc(-c4c[nH]c5ncnc(N6CCOCC6)c45)c3)CC2)cc1 [Compound 15] | -8.07
Cc1cc(NC(=O)C2(C(=O)Nc3ccc(F)cc3)CC2)cc(-c2c[nH]c3ncnc(N4CCOCC4)c23)c1 [Compound 6] | -0.18

* * *

target: ~100 representative kinases (Homo sapiens, UniProt P33981); construct: Recombinant protein kinase domains with a concentration of 2 μM; assay: DSF 100 kinase selectivity screen; assay type: binding; conditions: Protein TTK; DSF; average of three replicates;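 note: compound tested at 20 µM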
Sequence (P33981 whole entry, the tested form may be a part): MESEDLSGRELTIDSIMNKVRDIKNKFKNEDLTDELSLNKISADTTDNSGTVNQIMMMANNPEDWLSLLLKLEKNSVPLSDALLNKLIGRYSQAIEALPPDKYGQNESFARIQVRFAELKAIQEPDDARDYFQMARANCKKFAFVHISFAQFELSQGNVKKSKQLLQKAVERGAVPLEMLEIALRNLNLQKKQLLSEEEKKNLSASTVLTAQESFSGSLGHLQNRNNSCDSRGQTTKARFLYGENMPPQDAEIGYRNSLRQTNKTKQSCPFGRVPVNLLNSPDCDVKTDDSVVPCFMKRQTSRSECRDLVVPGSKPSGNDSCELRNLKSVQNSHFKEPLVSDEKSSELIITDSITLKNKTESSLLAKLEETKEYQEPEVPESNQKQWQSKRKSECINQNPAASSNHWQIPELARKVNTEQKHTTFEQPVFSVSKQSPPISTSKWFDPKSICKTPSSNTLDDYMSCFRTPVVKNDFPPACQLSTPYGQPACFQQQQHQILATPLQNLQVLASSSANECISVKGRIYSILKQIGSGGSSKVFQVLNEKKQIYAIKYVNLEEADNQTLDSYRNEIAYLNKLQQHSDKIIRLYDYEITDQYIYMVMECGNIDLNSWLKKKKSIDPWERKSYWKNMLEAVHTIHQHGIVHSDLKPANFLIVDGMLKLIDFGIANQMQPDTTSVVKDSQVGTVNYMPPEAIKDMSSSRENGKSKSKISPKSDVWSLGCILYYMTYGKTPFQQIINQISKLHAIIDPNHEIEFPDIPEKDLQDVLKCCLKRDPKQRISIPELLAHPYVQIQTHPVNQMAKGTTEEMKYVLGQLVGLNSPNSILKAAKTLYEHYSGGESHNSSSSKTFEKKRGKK
Metric: dTm

COc1cc(S(C)(=O)=O)ccc1Nc1nc(N(C)C)c2c(Cl)c[nH]c2n1 | 7.87 K
Cc1cc(NC(=O)C2(C(=O)Nc3ccc(F)cc3)CC2)cc(-c2c[nH]c3ncnc(N4CCOCC4)c23)c1 | 5.72 K
CCNc1nc(Nc2cc(F)c(C(=O)N3CCOCC3)cc2OC)ncc1C(F)(F)F | 6.53 K
O=C(Nc1cccc(-c2c[nH]c3ncnc(N4CCOCC4)c23)c1)c1cccn(-c2ccc(F)cc2)c1=O | 3.00 K
COc1cc(C(=O)N2CCOCC2)c(F)cc1Nc1nc(N(C)C)c2c(Cl)c[nH]c2n1 | 10.39 K
O=C(Nc1ccc(F)cc1)C1(C(=O)Nc2cccc(-c3c[nH]c4ncnc(N5CCOCC5)c34)c2)CC1 | 6.94 K
O=C(Nc1ccc(Cl)cc1)C1(C(=O)Nc2cccc(-c3c[nH]c4ncnc(N5CCOCC5)c34)c2)CC1 | 6.50 K

* * *

target: ~100 representative kinases (Homo sapiens, UniProt Q9H4A3); construct: Recombinant protein kinase domains with a concentration of 2 μM; assay: DSF 100 kinase selectivity screen; assay type: binding; conditions: Protein WNK1; DSF; average of three replicates;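 note: compound tested at 20 µM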
Sequence (Q9H4A3 whole entry, the tested form may be a part): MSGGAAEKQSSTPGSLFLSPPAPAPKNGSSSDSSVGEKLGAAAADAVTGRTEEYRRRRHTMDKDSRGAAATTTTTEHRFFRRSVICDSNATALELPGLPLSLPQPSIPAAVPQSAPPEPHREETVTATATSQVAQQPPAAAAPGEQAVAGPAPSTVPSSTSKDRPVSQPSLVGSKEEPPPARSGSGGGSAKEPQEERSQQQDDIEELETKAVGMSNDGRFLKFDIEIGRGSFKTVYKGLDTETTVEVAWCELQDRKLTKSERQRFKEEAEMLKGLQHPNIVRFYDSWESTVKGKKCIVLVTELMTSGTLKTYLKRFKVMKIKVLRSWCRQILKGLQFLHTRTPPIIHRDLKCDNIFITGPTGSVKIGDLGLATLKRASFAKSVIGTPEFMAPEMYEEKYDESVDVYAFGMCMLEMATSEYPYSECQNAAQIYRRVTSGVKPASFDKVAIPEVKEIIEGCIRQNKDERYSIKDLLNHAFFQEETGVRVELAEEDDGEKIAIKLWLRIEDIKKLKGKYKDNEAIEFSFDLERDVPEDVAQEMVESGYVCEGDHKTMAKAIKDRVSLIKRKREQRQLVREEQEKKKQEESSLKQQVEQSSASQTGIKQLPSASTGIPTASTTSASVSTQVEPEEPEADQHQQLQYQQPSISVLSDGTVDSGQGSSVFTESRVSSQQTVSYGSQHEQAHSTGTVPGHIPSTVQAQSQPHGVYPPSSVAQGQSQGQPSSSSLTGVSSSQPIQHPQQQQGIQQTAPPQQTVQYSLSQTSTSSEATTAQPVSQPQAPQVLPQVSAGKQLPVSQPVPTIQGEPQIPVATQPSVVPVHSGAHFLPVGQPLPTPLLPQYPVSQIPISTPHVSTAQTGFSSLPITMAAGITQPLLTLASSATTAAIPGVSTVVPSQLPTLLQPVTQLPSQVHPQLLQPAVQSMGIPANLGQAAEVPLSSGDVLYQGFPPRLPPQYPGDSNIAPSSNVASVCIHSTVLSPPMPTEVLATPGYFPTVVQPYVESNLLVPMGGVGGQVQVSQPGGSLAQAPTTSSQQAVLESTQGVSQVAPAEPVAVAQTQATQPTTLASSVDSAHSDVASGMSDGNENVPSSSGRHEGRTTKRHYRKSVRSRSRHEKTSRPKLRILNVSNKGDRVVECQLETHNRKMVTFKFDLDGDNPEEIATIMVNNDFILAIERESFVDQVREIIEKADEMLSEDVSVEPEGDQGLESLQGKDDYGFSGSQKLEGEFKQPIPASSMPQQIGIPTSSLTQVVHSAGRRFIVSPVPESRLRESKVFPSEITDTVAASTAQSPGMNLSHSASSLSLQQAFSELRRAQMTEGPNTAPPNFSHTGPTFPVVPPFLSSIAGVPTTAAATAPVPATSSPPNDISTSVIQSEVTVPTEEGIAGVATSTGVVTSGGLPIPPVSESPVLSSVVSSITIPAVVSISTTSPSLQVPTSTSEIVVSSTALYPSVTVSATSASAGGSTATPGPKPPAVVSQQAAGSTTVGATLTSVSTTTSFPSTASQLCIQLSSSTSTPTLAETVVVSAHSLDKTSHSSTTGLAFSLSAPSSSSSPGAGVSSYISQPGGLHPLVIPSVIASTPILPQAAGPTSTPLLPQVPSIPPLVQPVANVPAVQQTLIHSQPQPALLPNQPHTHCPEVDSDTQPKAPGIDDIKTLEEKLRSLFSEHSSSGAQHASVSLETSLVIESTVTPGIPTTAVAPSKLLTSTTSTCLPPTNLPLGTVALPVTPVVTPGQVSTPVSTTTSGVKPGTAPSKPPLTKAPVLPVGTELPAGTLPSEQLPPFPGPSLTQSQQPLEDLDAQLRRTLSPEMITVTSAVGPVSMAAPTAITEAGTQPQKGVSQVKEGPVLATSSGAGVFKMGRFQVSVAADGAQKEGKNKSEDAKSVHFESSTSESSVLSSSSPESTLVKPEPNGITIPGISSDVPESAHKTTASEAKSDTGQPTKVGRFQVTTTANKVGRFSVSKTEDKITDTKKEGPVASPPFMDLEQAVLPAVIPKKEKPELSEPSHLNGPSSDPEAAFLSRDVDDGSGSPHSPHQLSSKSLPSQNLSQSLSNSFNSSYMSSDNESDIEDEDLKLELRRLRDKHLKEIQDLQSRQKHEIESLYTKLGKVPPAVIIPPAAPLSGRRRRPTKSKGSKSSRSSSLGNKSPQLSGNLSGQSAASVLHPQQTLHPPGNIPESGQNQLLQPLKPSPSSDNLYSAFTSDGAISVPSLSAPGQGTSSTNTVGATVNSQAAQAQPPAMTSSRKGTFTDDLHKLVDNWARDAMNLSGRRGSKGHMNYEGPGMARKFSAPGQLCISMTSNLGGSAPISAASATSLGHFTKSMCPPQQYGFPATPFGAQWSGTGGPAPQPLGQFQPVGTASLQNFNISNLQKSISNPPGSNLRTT
The threshold is 1 K. Values of dTm beneath it are tagged 1.0; values meeting or exceeding it are tagged 0.0.

CCSc1nc(NC)c2c(-c3cccc(NC(=O)Nc4cc(C(C)(C)C)nn4-c4ccc(C)cc4)c3)c[nH]c2n1 | 1.0
Cc1ccc(C(=O)Nc2ccc(CN3CCN(C)CC3)c(C(F)(F)F)c2)cc1C#Cc1c[nH]c2ncnc(N3CCOCC3)c12 | 0.0
O=C(Nc1cccc(-c2c[nH]c3ncnc(N4CCOCC4)c23)c1)C1(C(=O)Nc2cc(Br)c(F)cc2F)CC1 | 0.0
CC(C)(C)c1cc(NC(=O)Nc2cccc(-c3c[nH]c4ncnc(N5CCOCC5)c34)c2)n(-c2ccc3ncccc3c2)n1 | 0.0
O=C(Nc1cccc(-c2c[nH]c3ncnc(N4CCOCC4)c23)c1)C1(C(=O)Nc2ccc(F)c(Br)c2F)CC1 | 0.0
Cn1cc(-c2c[nH]c3ncnc(N4CCOCC4)c23)cc1C#N | 1.0
COc1cc(S(C)(=O)=O)ccc1Nc1nc(N(C)C)c2c(Cl)c[nH]c2n1 | 1.0
COc1cc(C(=O)N2CCOCC2)c(F)cc1Nc1nc(N(C)C)c2c(Cl)c[nH]c2n1 | 1.0
CC(=O)N1CCN(c2nc(Cl)nc3[nH]cc(-c4cccc(NC(=O)Nc5cc(C(C)(C)C)nn5-c5ccc(C)cc5)c4)c23)CC1 | 1.0
O=C(Nc1cc(F)cc(Br)c1)C1(C(=O)Nc2cccc(-c3c[nH]c4ncnc(N5CCOCC5)c34)c2)CC1 | 1.0
Cc1ccc(-n2nc(C(C)(C)C)cc2NC(=O)Nc2cccc(-c3c[nH]c4ncnc(N5CCOCC5)c34)c2)cc1 | 0.0

* * *

biological target: ~100 representative kinases (Homo sapiens); construct: Recombinant protein kinase domains with a concentration of 2 μM; experiment: DSF 100 kinase selectivity screen; type: binding; details: Protein CSNK1D; average of three replicates;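 note: compound tested at 20 µM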
Metric: dTm

Cc1ccc(-n2nc(C(C)(C)C)cc2NC(=O)Nc2cccc(-c3c[nH]c4nc(Cl)nc(N5CCOCC5)c34)c2)cc1 | -2.91 K
CNC(=O)c1cc(Oc2ccc(NC(=O)Nc3cc(C(C)(C)C)nn3-c3ccc4ncccc4c3)c(F)c2)ccn1 [Rebastinib, reference compound] | -1.01 K
CC(=O)N1CCN(c2nc(Cl)nc3[nH]cc(-c4cccc(NC(=O)Nc5cc(C(C)(C)C)nn5-c5ccc(C)cc5)c4)c23)CC1 | -0.88 K
Cc1ccc(NC(=O)C2(C(=O)Nc3cccc(-c4c[nH]c5ncnc(N6CCOCC6)c45)c3)CC2)cc1 | 1.58 K
O=C(Nc1cccc(-c2c[nH]c3ncnc(N4CCOCC4)c23)c1)C1(C(=O)Nc2cccc3c2CCC3)CC1 | 1.21 K
COc1cc(S(C)(=O)=O)ccc1Nc1nc(N(C)C)c2c(Cl)c[nH]c2n1 | 2.29 K
Cc1ccc(-n2nc(C(C)(C)C)cc2NC(=O)Nc2cccc(-c3c[nH]c4ncnc(N5CCOCC5)c34)c2)cc1 | 0.95 K
O=C(Nc1cccc(-c2c[nH]c3ncnc(N4CCOCC4)c23)c1)C1(C(=O)Nc2ccc(F)c(Br)c2)CC1 | 0.43 K
COc1cc(NC(=O)C2(C(=O)Nc3cccc(-c4c[nH]c5ncnc(N6CCOCC6)c45)c3)CC2)ccc1F | 3.13 K
CCSc1nc(NC)c2c(-c3cccc(NC(=O)Nc4cc(C(C)(C)C)nn4-c4ccc(C)cc4)c3)c[nH]c2n1 | 0.85 K
O=C(Nc1ccccc1)C1(C(=O)Nc2cccc(-c3c[nH]c4ncnc(N5CCOCC5)c34)c2)CC1 | 1.61 K
CCc1ccc(NC(=O)C2(C(=O)Nc3cccc(-c4c[nH]c5ncnc(N6CCOCC6)c45)c3)CC2)cc1 | 1.30 K
Cc1ccc(C(=O)Nc2ccc(CN3CCN(C)CC3)c(C(F)(F)F)c2)cc1C#Cc1cnc2[nH]ncc2c1 [GZD-824, reference compound] | 1.29 K
O=C(Nc1ccc(Cl)cc1)C1(C(=O)Nc2cccc(-c3c[nH]c4ncnc(N5CCOCC5)c34)c2)CC1 | 2.99 K
Cc1cc(F)ccc1NC(=O)C1(C(=O)Nc2cccc(-c3c[nH]c4ncnc(N5CCOCC5)c34)c2)CC1 | 1.47 K
CCNc1nc(Nc2cc(F)c(C(=O)N3CCOCC3)cc2OC)ncc1C(F)(F)F | 1.81 K
CN[C@@H]1C[C@H]2O[C@@](C)([C@@H]1OC)n1c3ccccc3c3c4c(c5c6ccccc6n2c5c31)C(=O)NC4 | 2.05 K
O=C(Nc1cccc(-c2c[nH]c3ncnc(N4CCOCC4)c23)c1)C1(C(=O)Nc2ccc(F)c(Br)c2F)CC1 | 0.95 K
O=C(Nc1cccc(-c2c[nH]c3ncnc(N4CCOCC4)c23)c1)C1(C(=O)Nc2ccc(F)c(Cl)c2)CC1 | 3.14 K

* * *

target: ~100 representative kinases (Homo sapiens, UniProt Q00536); construct: Recombinant protein kinase domains with a concentration of 2 μM; assay: DSF 100 kinase selectivity screen; type: binding; conditions: protein PCTK1; average of three replicates;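 note: compound tested at 20 µM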
Sequence (Q00536 whole entry, the tested form may be a part): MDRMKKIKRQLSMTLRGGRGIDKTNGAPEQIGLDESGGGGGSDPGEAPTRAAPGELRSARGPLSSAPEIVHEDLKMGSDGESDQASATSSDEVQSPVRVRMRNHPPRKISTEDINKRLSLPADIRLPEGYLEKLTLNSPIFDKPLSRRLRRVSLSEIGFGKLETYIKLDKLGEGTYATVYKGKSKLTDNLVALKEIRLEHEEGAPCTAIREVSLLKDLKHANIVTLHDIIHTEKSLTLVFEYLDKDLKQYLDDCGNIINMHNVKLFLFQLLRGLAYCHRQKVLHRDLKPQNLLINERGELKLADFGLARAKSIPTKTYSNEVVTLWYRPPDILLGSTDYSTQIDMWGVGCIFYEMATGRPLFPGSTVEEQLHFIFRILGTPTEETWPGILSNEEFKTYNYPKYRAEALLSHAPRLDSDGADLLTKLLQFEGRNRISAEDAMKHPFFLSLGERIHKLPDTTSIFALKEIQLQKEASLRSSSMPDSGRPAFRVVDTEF
Metric: dTm (K)

Cn1cc(-c2c[nH]c3ncnc(N4CCOCC4)c23)cc1C#N [PFE-360] | 0.35
O=C(Nc1ccc(F)cc1)C1(C(=O)Nc2cccc(-c3c[nH]c4ncnc(N5CCOCC5)c34)c2)CC1 [Compound 2] | 5.80
O=C(Nc1cccc(-c2c[nH]c3ncnc(N4CCOCC4)c23)c1)c1cccn(-c2ccc(F)cc2)c1=O [Compound 4] | 7.66
CCSc1nc(NC)c2c(-c3cccc(NC(=O)Nc4cc(C(C)(C)C)nn4-c4ccc(C)cc4)c3)c[nH]c2n1 [Compound 32] | 3.77
